inhibition overview
Target: Lysine-specific demethylase 4C (Homo sapiens) (UniProt Q9H3R0)
Sequence (Q9H3R0 2-372 limits assumed): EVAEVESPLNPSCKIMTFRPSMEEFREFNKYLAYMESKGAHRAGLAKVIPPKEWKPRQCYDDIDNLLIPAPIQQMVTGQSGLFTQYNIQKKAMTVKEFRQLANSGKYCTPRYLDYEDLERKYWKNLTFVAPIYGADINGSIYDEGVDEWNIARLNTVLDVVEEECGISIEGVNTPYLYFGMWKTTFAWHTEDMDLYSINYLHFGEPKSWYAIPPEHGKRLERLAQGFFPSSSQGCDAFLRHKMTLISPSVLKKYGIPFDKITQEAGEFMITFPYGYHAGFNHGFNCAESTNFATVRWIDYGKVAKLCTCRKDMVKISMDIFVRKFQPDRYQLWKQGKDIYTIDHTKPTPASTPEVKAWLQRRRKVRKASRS
Test: KDM4C H3K9me3 demethylation inhibition – biochemical, single concentration HTS, primary screen (AID 720574)
Conditions: GST-KDM4C 2-372, H3K9me3 peptide, LANCE TR-FRET; at 12.5 µM; hits give high values
About 140 (0.15%) of roughly 96,000 compounds were called active. The full list was thinned out, with actives kept by preference.
Give just the number in %; leave the unit off.

Previously resolved entries follow.
Cn1cnc(CCNC(=O)C[C@@H]2CC[C@H]3[C@@H](COC[C@@H](O)CN3C(=O)Nc3ccc(Cl)cc3)O2)c1 = -0.915
CCS(=O)(=O)Nc1ccc2c(c1)C(=O)N(C)[C@H]1CC[C@@H](CC(=O)N3CCCCC3)O[C@H]1CO2 = -0.234

Turning now to a further compound:
Query :: Give the reported inhibition for `CCNC(=O)C[C@@H]1CC[C@@H]2[C@H](COc3ccc(NS(=O)(=O)c4ccccc4C)cc3C(=O)N2C)O1` (system: Lysine-specific demethylase 4C (Homo sapiens) (UniProt Q9H3R0)).
Result :: 2.37

* * *

Biological target: Lysine-specific demethylase 4C (Homo sapiens)
Test: KDM4C H3K9me3 demethylation inhibition – biochemical, single concentration HTS, primary screen (AID 720574)
Conditions: GST-KDM4C 2-372, H3K9me3 peptide, LANCE TR-FRET; at 12.5 µM
The campaign covered roughly 96,000 compounds. About 140 (0.15%) were called active.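 The calls were made as follows: active = mean replicate inhibition above about 25%, with at least 55% of replicates also reaching it (limit read from the data, passing the limit was not always enough); inconclusive = only one of those two conditions met; inactive = neither condition met.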 Many of the other results were omitted from the sample, so actives are more common in it than they were.
Outcome (select one): active, inactive

Would you please look over these solved cases?
COc1ccc2c3c(n(C)c2c1)[C@@H](CO)N(C(C)=O)CC31CCN(C(=O)C2CC2)CC1 = inactive
CCCN1[C@@H]2c3ccc(-c4ccccc4OC)c(=O)n3C[C@H]1[C@H](CO)[C@H]2C(=O)NCc1ccccn1 = inactive
CN(C)CC(=O)N[C@@H]1CC[C@@H](CCn2cc(C3CC3)nn2)O[C@H]1CO = inactive
COc1ccc(-c2cn(CC[C@H]3CC[C@@H](N)[C@H](CO)O3)nn2)cc1 = inactive
CO[C@@H]1CN(C)C(=O)c2ccc(NC(C)=O)cc2OC[C@@H](C)N(CC2CC2)C[C@H]1C = inactive
O=C(C[C@H]1C[C@H]2c3cc(NC(=O)C4CCOCC4)ccc3O[C@H]2[C@@H](CO)O1)NCCN1CCCCC1 = inactive
O=C(c1ccncc1)N1CC[C@@H]2[C@H]1c1cc(Br)ccc1N[C@@H]2CO = inactive
O=C(NC1Cc2ccccc2C1)[C@H]1[C@H](CO)[C@H]2Cn3c(ccc(C4=CCCCC4)c3=O)[C@H]2N1CC1CC1 = inactive

Query :: Write down the call the test reported for this compound. Item: `O=C(Nc1ccccc1)N1CC(=O)N2[C@@H](CO)[C@H](c3ccc(C#CC4CCCC4)cc3)[C@@H]2C1`
Result :: inactive

Query :: What is the recorded call for this compound in the test? `COc1ccc(S(=O)(=O)N(C)C[C@H]2OCCCC[C@H](C)Oc3ccc(NC(=O)Nc4ccc5c(c4)OCO5)cc3C(=O)N([C@@H](C)CO)C[C@@H]2C)cc1`
Result :: inactive

Query :: Hi, do you know how `CO[C@@H](CN(C)S(=O)(=O)c1ccccc1)[C@H](C)CN(Cc1ccccc1Cl)[C@H](C)CO` came out in this test?
Result :: inactive

Query :: What did this assay record as the result for `N[C@@H]1CC[C@H](CCn2cc(C3CC3)nn2)O[C@@H]1CO` ?
Result :: active

Query :: Which outcome was entered for the compound `COc1ccccc1C#Cc1cnc2c(c1)C(=O)N([C@H](C)CO)C[C@H](C)[C@H](CN(C)S(=O)(=O)c1cn(C)cn1)O2` in this test?
Result :: inactive

Query :: Please state the recorded outcome for this compound: `NCC[C@H]1CC[C@H](NC(=O)C2CC2)[C@@H](CO)O1`
Result :: inactive
